Test: protein stability index of a GFP-peptide fusion (GPS, HEK-293T) (PSI 1-6); higher = more stable;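 also: 24-mer peptide tiles fused after GFP, lentivirally expressed, FACS-sorted into six equal bins by GFP/DsRed ratio, decoded by Illumina sequencing, PSI is the read-weighted mean bin number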
Conditions: treatment: DMSO; c terminus: a fixed tail appended
Lab note: anything with protein stability index at or over 3 counts as t; the rest go in f.

These solved cases illustrate the format of a correct answer.
ORDERED RESIDUES | GROUP LABEL
SIRILDELVLPFQELQIDDNEYAY [HNF4A] | t
LYPSAPILGGSGPVRKLYDDCSST [ESRRG] | t

Here's the next entry for you.
Inquiry: Exam item: decide whether the reported protein stability index for MKVEAKSHLQWQESRLKRSNPLAR [ZSCAN9] is at least 3.
Reply text: t

----------
Experiment: protein stability index of a GFP-peptide fusion (GPS, HEK-293T) (PSI 1-6); higher = more stable
Details: treatment: MLN4924 1 uM, 8 h; c terminus: a fixed tail appended
Give measured protein stability index for each item. Keep answers brief.
Numbers only.

Hello, I would appreciate it if you could give protein stability index for each entry below.
1. SRVTAFLDDLSQKLKPLGEAEREF [NLN]
2. NLRAAGAEALGKLLQQNKSIQSLT [LRRC45]

Reply text:
[3.12, 3.33]

Hello, I would appreciate it if you could give protein stability index for each entry below.
1. KVLLSGATFLVTFGNSEKPETMTC [ZFYVE21]
2. EEVVSFVKKNVLVTGGFFGGFLLG [FUNDC2]
3. QFHKQIAVMRGQILNLTQALKDNK [PI4K2A]
4. VQTWTQPRLCYLVKEGGSYGFSLK [PDZK1]
5. SVSREARQTVPPLTVRLHTQSVSE [PWWP2B]
6. RTDPNGDYIRRYLPVLRGFPAKYI [CRY1]
7. SPLGALQHGFFRRTADEATNTGPA [DYRK1B]
8. LAEARRLFPGRVSVDLMLGLPAQQ [RSAD1]

Reply text:
2.23
2.61
2.8
2
4.42
2.42
4.57
2.7

Hello, I would appreciate it if you could give protein stability index for each entry below.
1. VDSFETQRNGLVFIYDMCGSNYAN [PTPN9]
2. RQKTSGPSVIQEIHQESGKAPSTD [C10orf62]
3. RPMHHEDFKEDLKKFRTKSRTWAG [CDC25A]
4. LVHIVCHKKTTHKLNCDPSRIYKP [DFFB]

Reply text:
1: 2.05; 2: 5.4; 3: 3.61; 4: 1.96

----------
Assay: protein stability index of a GFP-peptide fusion (GPS, HEK-293T) (PSI 1-6); higher = more stable
Conditions: treatment: MLN4924 1 uM, 8 h; c terminus: a fixed tail appended
Lab note: anything with protein stability index at or over 3 counts as Criterion met; the rest go in Criterion not met.

Inquiry: Exam item: decide whether the reported protein stability index for TVLENEDDMLLFDEQEKGIVTKFY [FAN1] is at least 3.
Reply text: Criterion met

Inquiry: Exam item: decide whether the reported protein stability index for RFIIIFEQIRFVMKAHSFVRENVP [SOAT1] is at least 3.
Reply text: Criterion not met

Inquiry: Exam item: decide whether the reported protein stability index for YDIAKHLTYENVERWLKELRDHAD [RAB11A] is at least 3.
Reply text: Criterion not met

Inquiry: Exam item: decide whether the reported protein stability index for AKDPGKGELPNHPKPAGGAIPTKK [FBF1] is at least 3.
Reply text: Criterion met

Inquiry: Exam item: decide whether the reported protein stability index for DPNINPTIGASFMTKTVQYQNELH [RAB22A] is at least 3.
Reply text: Criterion met

----------
Assay: protein stability index of a GFP-peptide fusion (GPS, HEK-293T) (PSI 1-6); higher = more stable
Settings: treatment: DMSO; c terminus: a fixed tail appended
Give measured protein stability index for each item. Keep answers brief.
Give bare numbers.

ORDERED RESIDUES | VALUE MEASURED
CATGLLGSAPFLFLSLACARGSIV [SPNS1] | 3.02
NTVERYNPQENRWHTIAPMGTRRK [KLHL20] | 4.43
KKRKRQEKIDKLEQDMERRKADFK [ZC3H15] | 4.7
KQSFLDGGKGHHLPSENLGKEPLD [TOR1AIP2] | 5.13
RSSFANQGEICLCTSRIFVQKSIY [ALDH8A1] | 2.03
PGQVAGADFESEDEGEEFDDWEDD [EID1] | 5.52

Hello, I would appreciate it if you could give protein stability index for each entry below.
1. LDAHYHVKISDFGLAKCNGLSHSH [RIPK4]
2. AGSTDDRIVVPQRGRSTRVPVASV [SPNS1]
3. DAETPPRFTRTPVDQTGVSGGVAS [PTPRD]

Reply text:
2.25
4.22
5

----------
Test: protein stability index of a GFP-peptide fusion (GPS, HEK-293T) (PSI 1-6); higher = more stable
Settings: treatment: DMSO; c terminus: a fixed tail appended
Give measured protein stability index for each item. Keep answers brief.
Numbers only.

Some sequences with known protein stability index results, for comparison:
ORDERED RESIDUES | protein stability index
NTFIALALQTLLTLIVVDASGLGL [SLC19A2] | 3.36
HKTHQAPASASSLPGTGAQLPPQP [DYRK1B] | 4.55
TIGFGDYVALQTKGALQKKPLYVA [KCNK9] | 2.29
SIAPPEAEGVVLSDSPDAADSTSF [PPTC7] | 5.34
LDNTKFRSHEGETAYIRVKVDGPR [SRSF1] | 3.73

Hello, I would appreciate it if you could give protein stability index for each entry below.
1. GCILFEYYRGFTLFQTHENREHLV [CLK3]
2. SLLGDDVFSTMAGLEEADAEVSVI [FBF1]
3. HLQEYAGNFQGIRFHYDRNPGTDA [FATE1]
4. FTDPFFIVETLCIIWFSFELVVRF [KCNA1]

Reply text:
2.97
3.56
3.37
3.26

Hello, I would appreciate it if you could give protein stability index for each entry below.
1. LKDGYRLDEIPDDEDLDLIPPKSV [FAM219A]
2. EKKEKEKKKKDKEKEKEKHKVKAE [BRD3]
3. ISQYEDDLPPPPADPVLDLPLPPP [APBB1IP]
4. EGIKVEDLLFIVDTMLEEVENKEK [CEP70]
5. TCAPSVSYFKCVQKEVLPSMRKIV [CCND1]
6. AASTAAALENLQVEASCSVCLEYL [TRIM39]
7. SGLIEIQSYPLCIYLINQKWFGRK [SLC22A15]
8. VNKYYPPDFNPEKHGSLNRYHNSH [YJU2B]

Reply text:
1: 5.16; 2: 5.41; 3: 4.93; 4: 3.07; 5: 2.33; 6: 2.74; 7: 2.47; 8: 3.41

Hello, I would appreciate it if you could give protein stability index for each entry below.
1. ADFGLARIYSYQMALTPVVVTLWY [CDK4]
2. ANRWSFDGIDRWIKEIDEHAPGVP [RAB40B]
3. LSKQAKFAYKDEYEKFKLYLTIIL [TMEM120A]
4. SFLKQKEQLEAEAQALRQELERQR [PBXIP1]
5. APSKEEMLSWILRINLVAAIFSAP [PSD2]

Reply text:
1. 3.52
2. 3.92
3. 2.61
4. 4.43
5. 2.71

Hello, I would appreciate it if you could give protein stability index for each entry below.
1. LTGTARYMSINTHLGKEQSRRDDL [CSNK1G1]
2. VGSDPLIKSDEECRDLVDEAKNYL [KLHL20]
3. EEEAGQTSIEPSKSSIIPFRALKR [ZER1]
4. RGENLEHLRNKTEDLEATSEHFKT [VAMP8]

Reply text:
3.9
5.2
4.87
5.43

----------
Give measured protein stability index for each item. Keep answers brief.
Assay: protein stability index of a GFP-peptide fusion (GPS, HEK-293T) (PSI 1-6); higher = more stable
Settings: treatment: DMSO; c terminus: a fixed tail appended
One number for each entry.

Some sequences with known protein stability index results, for comparison:
ORDERED RESIDUES | MEASUREMENT TYPE | VALUE MEASURED
RRFSSEDLEDPLGGLLSYDEGGIT [FBF1] | protein stability index | 4.57
ILNLERDVEDLQRDKARLLREKVE [NFE2L1] | protein stability index | 3.96
TLPVLEASSWKKQVSHDFLETRFK [FBXO34] | protein stability index | 3.16

Hello, I would appreciate it if you could give protein stability index for each entry below.
1. ARKRKNRRLKQAKEEAQAEIEQYR [ATP6V1G1]
2. LAIFKSGGIPALVKMLGSPVDSVL [CTNNB1]
3. ERICSEEERAKAKHLARQLEEKDR [CHCHD3]
4. LTENTAENRELYIKTTLRELLVYI [PKD2L1]
5. PDDFVPPVPPPSYFATFYSCTPRM [FAM189A2]
6. MGQKVTGGIKTVDMRDPTYRPLKQ [SPSB1]
7. RNRGRFSSTTGLFYSAEIICAIEY [PRKX]
8. MSEGKPPDKKKRPRRSLSISKNKK [FAN1]

Reply text:
5.03
2.28
5.4
2.31
2.65
3.89
2.92
5.08

Hello, I would appreciate it if you could give protein stability index for each entry below.
1. KNYNYGMHYCAVPPRGPLGQGAMF [NEUROD6]
2. RRDAEEWFHAKSAELNKEVSTNTA [KRT13]

Reply text:
1. 2.18
2. 4.71
